Quick reference: pIC50 of the listed items.
- assay-system: Mouse ERK2 protein (Mus musculus (Mouse), UniProt P63085)
- Sequence (P63085 whole entry): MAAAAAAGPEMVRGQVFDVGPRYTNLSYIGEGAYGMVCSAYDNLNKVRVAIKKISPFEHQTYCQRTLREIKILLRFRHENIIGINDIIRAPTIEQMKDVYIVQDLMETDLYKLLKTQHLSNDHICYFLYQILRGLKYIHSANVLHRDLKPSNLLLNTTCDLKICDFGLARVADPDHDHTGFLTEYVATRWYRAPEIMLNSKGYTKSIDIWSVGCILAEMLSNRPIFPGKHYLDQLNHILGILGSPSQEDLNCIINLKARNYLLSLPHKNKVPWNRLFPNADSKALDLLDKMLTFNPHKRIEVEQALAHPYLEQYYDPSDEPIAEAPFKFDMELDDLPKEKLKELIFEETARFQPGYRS
- protocol-summary: Coupled MEK1/ERK2 IMAP assay or Active ERK2 IMAP assay
- Type: biochemical
- protocol-conditions: Table 1, class symbols, 30 μM ATP
pIC50: −log10 of the molar value.

The cases that follow already have their pIC50 on record.
O=C(N[C@@H]1CCCN(Cc2ccccc2)C1)N1CCc2[nH]nc(-c3ccc4c(c3)CCO4)c2C1 :: > 7.70
Cc1cc(-c2n[nH]c3c2CN(C(=O)NC2CC(C)CN(Cc4ccccc4Cl)C2)CC3)ccn1 (stereo not drawn) :: 7.00 to 7.68
O=C(N[C@@H]1CCN(Cc2csc3ccccc23)C1)N1CCc2[nH]nc(-c3ccc(-c4ccccc4)nc3)c2C1 :: 6.00 to 7.00

Ask | Please supply the value of reported pIC50 for the item O=C(N[C@@H]1CCCN(Cc2c(F)cccc2C(F)(F)F)C1)N1CCc2[nH]nc(-c3ccncc3)c2C1
Reply | 7.00 to 7.68

---

- assay-system: UniProt P63085
- protocol-summary: Coupled MEK1/ERK2 IMAP assay or Active ERK2 IMAP assay
- Format: biochemical
- protocol-conditions: Table 2, 30 μM ATP
- Description: 14 μl of kinase buffer (10 mM Tris.HCl pH 7.2, 10 mM MgCl2, 0.01% Tween-20, 1 mM DTT) containing 0.4 ng unphosphorylated Mouse ERK2 protein is added to each well of a black 384-well assay plate. […] DMSO concentration during initial incubation is 6.7%. […] Binding is allowed to equilibrate for 30 minutes before reading the plate on an LJL Analyst Fluorescence Polarization plate reader. Activated ERK2 activity was also determined in the IMAP assay format using the procedure outlined above. […]
test-readout: IC50 (nM)

The cases that follow already have their IC50 on record.
Cn1c(CN2CCC[C@@H](NC(=O)N3CCc4[nH]nc(-c5ccncc5)c4C3)C2)cc2ccccc21 [Compound 61] :: 0.3
Cc1cc(-c2n[nH]c3c2CN(C(=O)N[C@@H]2CCCN(Cc4cccc5ccccc45)C2)CC3)ccn1 [Compound 100] :: 3.7
O=C(N[C@@H]1CCCN(Cc2csc3ccccc23)C1)N1CCc2[nH]nc(-c3ccncc3)c2C1 [Compound 57] :: 0.5

P: Cn1cc(CN2CCC[C@@H](NC(=O)N3CCc4[nH]nc(-c5ccncc5)c4C3)C2)c2ccccc21 [Compound 60]
Q: Cc1ccc(CN2CCC[C@@H](NC(=O)N3CCc4[nH]nc(-c5ccncc5)c4C3)C2)s1 [Compound 59]
R: O=C(N[C@@H]1CCCN(Cc2ccccc2F)C1)N1CCc2[nH]nc(-c3ccncc3)c2C1 [Compound 48]
S: O=C(N[C@@H]1CCCN(Cc2cccc3ccccc23)C1)N1CCc2[nH]nc(-c3ccc4nccn4c3)c2C1 [Compound 112]
Ask | Sort the 4 compounds by IC50; largest first, smallest last. Would you mind listing the labels in the order requested?
Reply | S, Q, P, R

---

- assay-system: Mouse ERK2 protein (Mus musculus (Mouse), UniProt P63085)
- protocol-summary: Coupled MEK1/ERK2 IMAP assay or Active ERK2 IMAP assay
- Format: biochemical
- protocol-conditions: Table 1, class symbols, 30 μM ATP
pIC50: −log10 of the molar value.
test-readout: pIC50

The cases that follow already have their pIC50 on record.
O=C(Cc1cccnc1)N1CCc2[nH]nc(-c3ccncc3)c2C1 :: 6.00 to 7.00
COc1ccc(-c2n[nH]c3c2CN(C(=O)N[C@@H]2CCCN(Cc4c(C)cccc4C)C2)CC3)cc1F :: 7.00 to 7.68

Ask | Please supply the value of reported pIC50 for the item O=C(N[C@H]1CNC[C@@H]1c1ccccc1)C1CCc2[nH]nc(-c3ccc4ncsc4c3)c2C1 (mixture of isomers)
Reply | 4.00 to 6.00

---

- assay-system: Mouse ERK2 protein (Mus musculus (Mouse), UniProt P63085)
- protocol-summary: Coupled MEK1/ERK2 IMAP assay or Active ERK2 IMAP assay
- Assay type: biochemical
- protocol-conditions: Table 1, class symbols, 30 μM ATP
pIC50: −log10 of the molar value.
test-readout: pIC50

The cases that follow already have their pIC50 on record.
O=C(N[C@@H]1CCCNC1)N1CCc2[nH]nc(-c3ccncc3)c2C1 (single isomer, unassigned) [Compound 171] :: 6.00 to 7.00
O=C(Cc1ccccc1Oc1ccccc1)N1CCc2[nH]nc(-c3ccncc3)c2C1 [Compound 29] :: 6.00 to 7.00
CN1CC(NC(=O)N2CCc3[nH]nc(-c4ccncc4)c3C2)CC(c2ccccc2)C1 (stereo not drawn) [Compound 49] :: > 7.70
CN(C)CCOc1ccccc1NC(=O)C1(C)CCc2[nH]nc(-c3ccncc3)c2C1 (stereo not drawn) [Compound 19] :: 4.00 to 6.00
Cc1nc2cc(-c3n[nH]c4c3CN(C(=O)N[C@@H]3CCCN(Cc5csc6ccccc56)C3)CC4)ccc2o1 [Compound 152] :: > 7.70

Ask | Please supply the value of reported pIC50 for the item Cc1cc(-c2n[nH]c3c2CN(C(=O)NC2CC(C)CN(Cc4c(F)cccc4Cl)C2)CC3)ccn1 (stereo not drawn) [Compound 91]
Reply | > 7.70

Ask | Please supply the value of reported pIC50 for the item Cc1cccc(C)c1CN1CC[C@@H](NC(=O)N2CCc3[nH]nc(-c4ccc(-c5ccccc5)nc4)c3C2)C1 [Compound 139]
Reply | 6.00 to 7.00

Ask | Please supply the value of reported pIC50 for the item COC(=O)C1CC(NC(=O)N2CCc3[nH]nc(-c4ccnc(C)c4)c3C2)CN(Cc2c(F)cccc2F)C1 (stereo not drawn) [Compound 82]
Reply | 6.00 to 7.00

Ask | Please supply the value of reported pIC50 for the item O=C(N[C@@H]1CCCN(Cc2c(F)cccc2F)C1)N1CCc2[nH]nc(-c3ccc4ncccc4c3)c2C1 [Compound 130]
Reply | 7.00 to 7.68

Ask | Please supply the value of reported pIC50 for the item Cc1cc(-c2n[nH]c3c2CN(C(=O)NC2CC(C)CN(Cc4cc5ccccc5n4C)C2)CC3)ccn1 (stereo not drawn) [Compound 102]
Reply | 7.00 to 7.68

---

- assay-system: Mouse ERK2 protein (Mus musculus (Mouse), UniProt P63085)
- protocol-summary: Coupled MEK1/ERK2 IMAP assay or Active ERK2 IMAP assay
- Format: biochemical
- protocol-conditions: Table 1, class symbols, 30 μM ATP
Quick reference: IC50 of the listed items.

The cases that follow already have their IC50 on record.
O=C(N[C@H]1CNC[C@@H]1c1ccccc1)[C@H]1CCc2[nH]nc(-c3ccc4ncsc4c3)c2C1 (racemic) :: 1000 to 100000 nM
Cc1cc(-c2n[nH]c3c2CN(C(=O)NC2CCC(c4ccccc4)N(Cc4c(F)cccc4F)C2)CC3)ccn1 (centres unmarked) :: 101 to 1000 nM
CC(C(=O)N1CCc2[nH]nc(-c3ccncc3)c2C1)c1ccccc1 (centres unmarked) :: 1000 to 100000 nM
O=C(N[C@@H]1CCCN(Cc2ncc[nH]2)C1)N1CCc2[nH]nc(-c3ccncc3)c2C1 :: 101 to 1000 nM
O=C(N[C@@H]1CCCN(Cc2c(F)cccc2F)C1)N1CCc2[nH]nc(-c3ccc4c(c3)CCO4)c2C1 :: 21 to 100 nM
Cc1nc2ccc(-c3n[nH]c4c3CN(C(=O)N[C@@H]3CCCN(Cc5coc6ccccc56)C3)CC4)cc2s1 :: < 20 nM
O=C(N1CCc2[nH]nc(-c3ccncc3)c2C1)C1(c2ccc(Cl)cc2Cl)CC1 :: 101 to 1000 nM
Cc1cccc(C)c1CN1CCC[C@@H](NC(=O)N2CCc3[nH]nc(-c4ccc5c(cnn5C)c4)c3C2)C1 :: < 20 nM
CC1(C(=O)Nc2ccccc2OCC2CCCO2)CCc2[nH]nc(-c3ccncc3)c2C1 (centres unmarked) :: 1000 to 100000 nM
O=C(NC1CC(O)CN(Cc2ccccc2Cl)C1)N1CCc2[nH]nc(-c3ccncc3)c2C1 (centres unmarked) :: < 20 nM

Ask | Please supply the value of reported IC50 for the item O=C(NC1CC[C@H]2CC[C@@H]1N2Cc1c(F)cccc1F)N1CCc2[nH]nc(-c3ccc4nccn4c3)c2C1 (stereo in doubt)
Reply | 101 to 1000 nM

Ask | Please supply the value of reported IC50 for the item Cc1cc(-c2n[nH]c3c2CN(C(=O)NC2CN(Cc4c(F)cccc4F)CCC2F)CC3)ccn1 (mixture of isomers)
Reply | 101 to 1000 nM

Ask | Please supply the value of reported IC50 for the item Cc1nc2cc(-c3n[nH]c4c3CN(C(=O)N[C@@H]3CCCN(Cc5cn(C)c6ccccc56)C3)CC4)ccc2o1
Reply | 21 to 100 nM

Ask | Please supply the value of reported IC50 for the item CCC1(NC(=O)N2CCc3[nH]nc(-c4ccnc(C)c4)c3C2)CCCN(Cc2c(F)cccc2F)C1 (centres unmarked)
Reply | 101 to 1000 nM

The measured values listed here are drawn from patent US9242981B2.
